- procedureDetails: Aqueous solubility in FaSSIF
- Type: physicochemical
- conditionsUsed: kinetic from dmso stock, pH 6.5, 16 hours, room temperature
quantity: solubility at 16 h (µg/mL)

[[record]]
compound = "CC(=O)N1CCC(CS(=O)(=O)c2ccc(-c3ccc(C(F)(F)F)cc3F)cc2)CC1 [NASMP-07]"
experimentalvalue = 89

[[record]]
compound = "CCC(=O)N1CCC(CS(=O)(=O)c2ccc(-c3ccc(F)cc3F)cc2)CC1 [NASMP-15]"
experimentalvalue = 73

[[record]]
compound = "CC(=O)N1CCC(CS(=O)(=O)c2ccc(-c3ccc(Cl)cc3C#N)cc2)CC1 [NASMP-06]"
experimentalvalue = 83

[[record]]
compound = "CC(=O)N1CCC(C2(S(=O)(=O)c3ccc(-c4ccc(F)cc4F)cc3)CC2)CC1 [NASMP-21]"
experimentalvalue = 71

[[record]]
compound = "CC(=O)N1CCC(CS(=O)(=O)c2ccc(-c3ccc(C#N)cc3Cl)cc2)CC1 [NASMP-05]"
experimentalvalue = 62

[[record]]
compound = "CC(=O)N1CCC(CS(=O)(=O)c2ccc(-c3ccc(F)cc3F)cc2C(F)(F)F)CC1 [NASMP-12]"
experimentalvalue = 68

[[record]]
compound = "CC(=O)N1CCC(C(C)(C)S(=O)(=O)c2ccc(-c3ccc(F)cc3F)cc2)CC1 [NASMP-18]"
experimentalvalue = 39

[[record]]
compound = "CC(=O)N1CCC(CS(=O)(=O)c2ccc(-c3c(F)cccc3F)cc2)CC1 [NASMP-09]"
experimentalvalue = 28

[[record]]
compound = "CC(=O)N1CCC(CS(=O)(=O)c2ccc(-c3cc(F)cc(F)c3)cc2)CC1 [NASMP-20]"
experimentalvalue = 37

[[record]]
compound = "CC(=O)N1CCC(CS(=O)(=O)c2ccc(-c3cc(F)ccc3F)cc2)CC1 [NASMP-03]"
experimentalvalue = 42

[[record]]
compound = "CC(=O)N1CCC(C(F)(F)S(=O)(=O)c2ccc(-c3ccc(F)cc3F)cc2)CC1 [NASMP-19]"
experimentalvalue = 27

[[record]]
compound = "CC(=O)N1CCC(CS(=O)(=O)c2ccc(-c3ccc(F)c(F)c3)cc2)CC1 [NASMP-02]"
experimentalvalue = 32

[[record]]
compound = "CC(=O)N1CCC(C(C)S(=O)(=O)c2ccc(-c3ccc(F)cc3F)cc2)CC1 (centres unmarked) [NASMP-17]"
experimentalvalue = 77

[[record]]
compound = "CC(=O)N1CCC(CS(=O)(=O)c2ccc(-c3ccc(F)cc3F)cc2)CC1 [NASMP-01]"
experimentalvalue = 75

